System: BDF1 mice, P388 leukemia ip, median survival T/C
RUN_DESCRIPTION: NCI In Vivo Anticancer Drug Screen. Data for tumor model P388 Leukemia (intraperitoneal) in B6D2F1 (BDF1) mice
CONDITIONS_USED: endpoint: median survival time; dose: 100.0 mg/kg/injection; schedule: Q04DX003 (ip); vehicle: saline
Inconclusive results and toxic doses are left out. How the source made its calls: active means survival T/C of 150% or more; inactive means T/C below 125% in these data.
Your answer must be one of the following: active, inactive

Known results for compounds:
| COMPOUND | SYSTEM_TESTED | CATEGORY |
| --- | --- | --- |
| CCCCNC(C)(C)C(SSSC(c1ccc(C(F)(F)F)cc1)C(C)(C)NCCCC)c1ccc(C(F)(F)F)cc1 (stereo unspecified) | BDF1 mice, P388 leukemia ip, median survival T/C | inactive |
| COc1ccc(C(C#N)CC(=O)c2ccc(OC)c(OCc3ccccc3)c2)cc1OC (stereo unspecified) | BDF1 mice, P388 leukemia ip, median survival T/C | inactive |
| Cc1nnc(NC2=NCCO2)s1 | BDF1 mice, P388 leukemia ip, median survival T/C | inactive |
| NC(=O)c1cn(C2OC(CO)C(O)C2O)c2ncn3ccnc3c12 (stereo unspecified) | BDF1 mice, P388 leukemia ip, median survival T/C | inactive |
| CC(=O)Nc1ccc(Cl)cc1C(=O)c1ccc[nH]1 | BDF1 mice, P388 leukemia ip, median survival T/C | inactive |

Q: # outcome recorded in this test, key = CC(O)CN1CCCC1 (stereo unspecified)
Ans: inactive

Q: # outcome recorded in this test, key = `COc1cc(/C=C(/C)[N+](=O)[O-])ccc1O`
Ans: inactive

Q: # outcome recorded in this test, key = CN(C)CCCNC(CC#N)CCC#N (stereo unspecified)
Ans: inactive

Q: # outcome recorded in this test, key = `NNc1nccnc1Cl`
Ans: inactive

Q: # outcome recorded in this test, key = `COc1ccc(/C=C/C(=O)c2ccc3c(c2)OCO3)cc1O`
Ans: inactive

Q: # outcome recorded in this test, key = `CC(C)(O)C(Cl)(Cl)Cl`
Ans: inactive

Q: # outcome recorded in this test, key = `C[S+](C)CC(=O)c1ccccc1`
Ans: inactive

Q: # outcome recorded in this test, key = `Cn1cnc([N+](=O)[O-])c1Cl`
Ans: inactive

Q: # outcome recorded in this test, key = `NC(N)=N/N=C/C=N/N=C(N)N`
Ans: inactive

Q: # outcome recorded in this test, key = `C(=NC12CC3CC(CC(C3)C1)C2)c1ccccc1`
Ans: inactive

Q: # outcome recorded in this test, key = `C[n+]1ccc2ccccc2c1`
Ans: inactive

Q: # outcome recorded in this test, key = `CCOC(=O)CCN1CCCCCC1`
Ans: inactive

Q: # outcome recorded in this test, key = O=C(NC(CSC(c1ccccc1)(c1ccccc1)c1ccccc1)C(=O)O)OCc1ccccc1 (stereo unspecified)
Ans: inactive

Q: # outcome recorded in this test, key = `O=C(OCCBr)c1ccccc1[N+](=O)[O-]`
Ans: inactive

Q: # outcome recorded in this test, key = `OCCN1CCNC1=S`
Ans: inactive

Q: # outcome recorded in this test, key = `C/C(=N\N=C(N)N)c1ccc(NC(=O)Nc2ccc(/C(C)=N/N=C(N)N)cc2)cc1`
Ans: active

====

We begin with a simple list: items and their reported T/C.
Tested on: BDF1 mice, P388 leukemia ip, median survival T/C
RUN_DESCRIPTION: NCI In Vivo Anticancer Drug Screen. Data for tumor model P388 Leukemia (intraperitoneal) in B6D2F1 (BDF1) mice
CONDITIONS_USED: endpoint: median survival time; dose: 200.0 mg/kg/injection; schedule: Q01DX009 (ip); vehicle: water; higher = longer survival
Inconclusive results and toxic doses are left out.

Consider the following illustrative entries.
| MOLECULE | SYSTEM_TESTED | T/C |
| --- | --- | --- |
| COC(=O)/C=C/c1c[nH]c2nccnc12 | BDF1 mice, P388 leukemia ip, median survival T/C | 115 % of control |
| O/C(=C/C(=S)S)c1ccco1 | BDF1 mice, P388 leukemia ip, median survival T/C | 102 % of control |
| CCOC(=O)N1C=Cn2c(cnc2C)C1O (centres undefined) | BDF1 mice, P388 leukemia ip, median survival T/C | 94 % of control |

Please turn your attention to the following entry.
The value of T/C measured for the molecule `CCSc1ncc(C)c(Cl)n1` turned out to be 99 % of control
